Tested on: UACC-257 melanoma
Experiment: NCI tumour cell line growth inhibition, 48 h
Can you tell me TGI for the items I'm about to list?

Okay, here is my list. What is TGI for each of these?
1. C=C(Cl)/C(=C\Cl)CCC(Cl)C(C)C (centres undefined)
2. Cn1c(=O)nc2n(-c3ccc(Cl)cc3)c(-c3ccccc3)c(-c3ccccc3)nc-2c1=O
3. CN(C)CCCNc1ccc2nnn3c4ccc(OC(=O)c5ccccc5)cc4c(=O)c1c23
4. CNCCCNC(=S)Cn1cc(C)c(=O)[nH]c1=O
5. Cc1ccccc1NC(=O)/C=N/O
6. CCOC(=O)c1nc2ccccc2nc1NCc1ccc(OC)c(OC)c1

a:
1: > 100 µM; 2: 66.9 µM; 3: 34.3 µM; 4: > 59.4 µM; 5: > 100 µM; 6: > 100 µM

Okay, here is my list. What is TGI for each of these?
1. CN(CCO)Cc1ncccc1O
2. Cc1ccc(/C=C2/N=C(N/N=C\C(O)C(O)C(O)CO)NC2=O)cc1 (centres undefined)
3. N#Cc1c(-c2ccccc2)cc(-c2ccc(N)cc2)[nH]c1=O

a:
1: > 100 µM; 2: > 100 µM; 3: > 100 µM

Okay, here is my list. What is TGI for each of these?
1. O=C(O)Cc1ccc(Nc2nc3ccccc3nc2C(=O)O)cc1
2. NC(=S)N=Nc1c(O)[nH]c2c(Cl)cc(Cl)cc12
3. CCCN(CCC)C(=S)N/N=C(/C)c1ccccc1O
4. O=NN1C(c2ccccc2)C2CCCC(C2=O)C1c1ccccc1 (centres undefined)
5. COCCOCCOCc1n(Cc2ccc3ccccc3c2)c2ccccc2[n+]1Cc1ccc2ccccc2c1
6. COC1CC(OC2CCC3(C)C(=CCC4C3C(OC(C)=O)C(OC(=O)CC(C)C)C3(C)C(C(C)=O)CCC43O)C2)OC(C)C1OC1CC(OC)C(OC2CC(OC)C(OC3OC(C)C(O)C(OC)C3O)C(C)O2)C(C)O1 (centres undefined)
7. Cc1c2n(c3ccccc13)S(=O)(=O)c1ccccc1-2

a:
1. > 100 µM
2. 86.2 µM
3. 27.6 µM
4. 66.2 µM
5. 0.988 µM
6. > 100 µM
7. > 100 µM

* * *

Test system: HL-60(TB) leukemia
Assay: NCI tumour cell line growth inhibition, 48 h
Can you tell me TGI for the items I'm about to list?

Below: 5 compounds and their reported TGI.
COMPOUND: N#Cc1cc2c(cc1C#N)/C(=N\c1cccc(N)n1)N=C2Nc1cccc(N)n1
TGI: > 100 µM

COMPOUND: N#Cc1ccc(/C=C(/C(=O)c2ccccc2)c2ccccc2)cc1
TGI: 9.81 µM

COMPOUND: O=C(Nn1c(-c2cccs2)nc2ccc(I)cc2c1=O)c1ccccc1
TGI: 99.7 µM

COMPOUND: Cc1c2n(c3ccccc13)S(=O)(=O)c1ccccc1-2
TGI: > 100 µM

COMPOUND: Cn1c2c(c3ccccc31)CCN=C2C1CCCOC1=O (stereo unspecified)
TGI: > 100 µM

Please find the next compound below.
q: What reported TGI corresponds to Cc1ccc(S(=O)(=O)OCC#CCOS(=O)(=O)c2ccc(C)cc2)cc1 on HL-60(TB) leukemia?
a: 3.55 µM

* * *

System: SR leukemia
Experiment: NCI tumour cell line growth inhibition, 48 h
Categories are assigned from the measured TGI using these intervals: range A = under 3 µM, range B = from 3 µM up to 50 µM, range C = 50 µM and over

q: Class label required: CC(C)c1ccc(C2NC(=S)NC3=C2c2ccccc2C3=O)cc1 (configuration not stated)
a: range B

q: Class label required: Cc1ccc(C(=O)NCCCOc2ccc(N3C(N)=NC(N)=NC3(C)C)cc2Cl)cc1S(=O)(=O)F
a: range C

q: Class label required: COc1cccc2c1C1(O)C2CCCCCCCCCC12OCCCO2 (configuration not stated)
a: range B

q: Class label required: CN(C)CCCNc1ccc2nnn3c4ccc(OC(=O)c5ccccc5)cc4c(=O)c1c23
a: range A

q: Class label required: CNCCCNC(=S)Cn1cc(C)c(=O)[nH]c1=O
a: range C

q: Class label required: CCC/C=C\C=C\C1(NS(=O)(=O)c2ccc(C)cc2)CCC(C(C)(C)C)CC1 (configuration not stated)
a: range B

q: Class label required: O=C1NC(N2CCCC(CO)C2)=N/C1=C\c1ccccc1 (configuration not stated)
a: range C

q: Class label required: c1cc(-c2ccc(-c3nc4ccc(C5=NCCN5)cc4s3)s2)ccc1C1=NCCN1
a: range A

q: Class label required: O=C1CCCC/C1=C1/SC(=Nc2ccccc2)C(=Nc2ccccc2)N1c1ccccc1
a: range C

q: Class label required: Cc1c(O)c(OC2OC(CO)C(O)C(O)C2O)cc2c1C=C[C@@H]1[C@@]2(C)C(=O)C[C@]2(C)[C@@H]([C@@](C)(O)C(O)/C=C/C(C)(C)O)[C@H](O)C[C@@]12C (some centres not stated)
a: range C

q: Class label required: CCN(CC)Cc1ccccc1CC(=O)N1c2ccccc2C(=O)Nc2cccnc21
a: range C

q: Class label required: O=C(O)C1OC1C(=O)O (configuration not stated)
a: range C

q: Class label required: CC(C)=Cc1cc(C)c2c3c(c(O)c(O)c(C)c13)C(C)=CC2=O
a: range C

q: Class label required: Cc1cc(-c2nnc(/C=C/c3ccc4c(c3)OCO4)o2)n[nH]1
a: range B

q: Class label required: CCCCCCCCOCC(O)CO (configuration not stated)
a: range C

q: Class label required: CCOC(=O)c1nc2ccccc2nc1NCc1ccc(OC)c(OC)c1
a: range C

q: Class label required: Nc1ncnc2c1ncn2C1OC(COS(N)(=O)=O)C(O)C1O (configuration not stated)
a: range A
